- Test system: NCI-H460
- TEST: MTT antiproliferative assay, NCI-H460
- Type: cell-based
- CONDITION CONTEXT: Homo sapiens, NCI-H460, 48 h, read-out: IC50 NCI-H460
ATTRIBUTE MEASURED: IC50 (µM)
Provide only the numeric value, understood in µM.

Value of measured IC50 for the entry COc1cccc2c1C(=O)c1c(O)c3c(c(O)c1C2=O)C[C@@](O)(C(=O)CO)C[C@@H]3O[C@H]1C[C@H](N)[C@H](O)[C@H](C)O1 : 3.14
